Test: logPOW determination, water/1-octanol distribution with UV/VIS readout
Assay type: physicochemical
Conditions: 1 h stirring, room temperature (23 °C), ratio of maximal UV absorbances, read-out: logPOW (measured)
Method: All logPOW values reported herein are determined as follows: 2 mg of the compound to be measured are distributed in a 250 ml beaker between a two-phase mixture of water (50 ml) and 1-octanol (50 ml) and stirred for 1 h on a magnetic stirrer at room temperature (23 °C). […] From the ratio of maximal absorbances in both layers (λmax) the corresponding log10POW values are determined.
Structures can show the parent of a compound that is named as a salt.
ATTRIBUTE_MEASURED: logP at 1 h
# respond with the number and nothing more

Record excerpt, results attached:
{"COMPOUND": "CCCCCCCCC1(CCCCCCCC)O[C@@H]2[C@H](O1)[C@@H](CO)O[C@H]2n1cnc2c(N)ncnc21 [Compound 2b]", "logP at 1 h": 3.86}
{"COMPOUND": "CCCCCCCCC1(CCCCCCCC)O[C@@H]2[C@H](O1)[C@@H](CO)O[C@H]2n1cnc2c1ncn1ccnc21 [Compound 4b, Hydrochloride]", "logP at 1 h": 2.57}
{"COMPOUND": "CCCCCCCC1(CCCCCCC)O[C@@H]2[C@H](O1)[C@@H](CO)O[C@H]2n1cnc2c(N)ncnc21 [Compound 2a]", "logP at 1 h": 2.82}
{"COMPOUND": "CCCCCCCC1(CCCCCCC)O[C@@H]2[C@H](O1)[C@@H](CO)O[C@H]2n1cnc2c1ncn1ccnc21.Cl [Compound 4a, Hydrochloride]", "logP at 1 h": 2.4}

Would you kindly look at the next entry?
Query: Note down logP at 1 h recorded for Cl.OC[C@H]1O[C@@H](n2cnc3c2ncn2ccnc32)[C@@H]2OC3(CCCCCCCCCCCCCC3)O[C@@H]21 [Compound 5, Hydrochloride]
Result: 1.67

Numbers sourced from patent EP4342905B1.
